- TARGET_ENTITY: acetylcholine receptor
- METHOD_NOTES: SPR, AchR immobilised on chip, peptide 10 uM
VALUE_KIND: Binding affinity (RU)

BINDER	RECORDED_NUMBER
RESDR [5mer-821]	12

[P] RKGYTR [6mer-1-209]
[Q] RFMVR [5mer-1130]
Q: Problem: Given the entries P and Q , determine which has the lower reported Binding affinity (RU). Answer by stating the label of the chosen item.
Result: Q
(Q: 17 RU, P: 121 RU)
